ASSAYED_SYSTEM: Serine/threonine-protein kinase 38 (Homo sapiens) (UniProt Q15208)
Sequence (Q15208 2-465 limits assumed): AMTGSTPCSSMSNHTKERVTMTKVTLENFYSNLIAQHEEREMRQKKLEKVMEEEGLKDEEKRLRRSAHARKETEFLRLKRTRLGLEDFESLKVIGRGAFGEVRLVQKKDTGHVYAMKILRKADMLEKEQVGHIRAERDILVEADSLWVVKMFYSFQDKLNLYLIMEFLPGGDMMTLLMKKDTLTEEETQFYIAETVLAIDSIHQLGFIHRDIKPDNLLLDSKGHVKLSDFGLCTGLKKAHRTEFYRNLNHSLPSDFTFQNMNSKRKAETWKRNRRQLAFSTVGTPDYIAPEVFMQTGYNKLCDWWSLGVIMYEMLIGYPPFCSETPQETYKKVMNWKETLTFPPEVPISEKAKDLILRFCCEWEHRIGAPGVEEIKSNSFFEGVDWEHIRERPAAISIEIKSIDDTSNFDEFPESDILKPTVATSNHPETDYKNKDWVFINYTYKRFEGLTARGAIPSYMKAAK
Just a reminder that ties go to F: only ΔTm strictly below 0.3 °C counts as T.

compound=O=[N+]([O-])c1ccc(-c2nc(-c3ccc(F)cc3)c(-c3ccncc3)[nH]2)cc1 assayed_system="Serine/threonine-protein kinase 38 (Homo sapiens) (UniProt Q15208)" group=F
compound=CC(=O)O/N=C1/C(=C2/C(=O)Nc3cc(Br)ccc32)Nc2ccccc21 assayed_system="Serine/threonine-protein kinase 38 (Homo sapiens) (UniProt Q15208)" group=F
compound=N=C(N)NCCNS(=O)(=O)c1cccc2cnccc12 assayed_system="Serine/threonine-protein kinase 38 (Homo sapiens) (UniProt Q15208)" group=T
compound=O=C(O)/C=C/c1cc(CO)ccc1CO assayed_system="Serine/threonine-protein kinase 38 (Homo sapiens) (UniProt Q15208)" group=T
compound=Cn1cnc2c(NCc3ccccc3)nc(NCCO)nc21 assayed_system="Serine/threonine-protein kinase 38 (Homo sapiens) (UniProt Q15208)" group=T
compound=COc1cc2c(cc1OC)-c1n[nH]c(Nc3cccc(F)c3)c1C2 assayed_system="Serine/threonine-protein kinase 38 (Homo sapiens) (UniProt Q15208)" group=F
compound=COc1ccc(S(=O)(=O)N(CCO)c2ccccc2CN(C)C/C=C/c2ccc(Cl)cc2)cc1 assayed_system="Serine/threonine-protein kinase 38 (Homo sapiens) (UniProt Q15208)" group=T
compound=O=C1Nc2ccccc2/C1=C/c1cnc[nH]1 assayed_system="Serine/threonine-protein kinase 38 (Homo sapiens) (UniProt Q15208)" group=F
compound=Cc1cc2ncc(-c3ccccc3)nc2cc1C assayed_system="Serine/threonine-protein kinase 38 (Homo sapiens) (UniProt Q15208)" group=F
compound="C[S+]([O-])c1ccc(-c2nc(-c3ccc(F)cc3)c(-c3ccncc3)[nH]2)cc1 (stereo unspecified)" assayed_system="Serine/threonine-protein kinase 38 (Homo sapiens) (UniProt Q15208)" group=T
compound=NCCNS(=O)(=O)c1cccc2c(Cl)cccc12 assayed_system="Serine/threonine-protein kinase 38 (Homo sapiens) (UniProt Q15208)" group=T
compound=CCCCc1c(-c2ccc(O)cc2)[nH]c2nccnc12 assayed_system="Serine/threonine-protein kinase 38 (Homo sapiens) (UniProt Q15208)" group=F
compound=NC1=N/C(=C2/CCNC(=O)c3[nH]ccc32)C(=O)N1 assayed_system="Serine/threonine-protein kinase 38 (Homo sapiens) (UniProt Q15208)" group=F
compound=Ic1cccc(CSc2nnc(-c3ccncc3)o2)c1 assayed_system="Serine/threonine-protein kinase 38 (Homo sapiens) (UniProt Q15208)" group=F
compound=Cn1cc(C2=C(c3cn(CCCSC(=N)N)c4ccccc34)C(=O)NC2=O)c2ccccc21 assayed_system="Serine/threonine-protein kinase 38 (Homo sapiens) (UniProt Q15208)" group=F
compound=O=C(O)c1cc(N(Cc2ccccc2O)Cc2cc(O)ccc2O)ccc1O assayed_system="Serine/threonine-protein kinase 38 (Homo sapiens) (UniProt Q15208)" group=T
compound=O=C1Nc2ccc(I)cc2/C1=C1/Nc2ccccc2/C1=N\O assayed_system="Serine/threonine-protein kinase 38 (Homo sapiens) (UniProt Q15208)" group=F
compound=CCOC(=O)c1cnc2oc3ccc(O)cc3c2c1-c1ccccc1 assayed_system="Serine/threonine-protein kinase 38 (Homo sapiens) (UniProt Q15208)" group=T
compound=O=C1c2ccccc2-c2n[nH]c3cccc1c23 assayed_system="Serine/threonine-protein kinase 38 (Homo sapiens) (UniProt Q15208)" group=F
